# Test system: Bacillus subtilis
# protocol-summary: cleaved RNA product abundance (RNA/gDNA barcode ratio) relative to median wild-type variant (ratio to wild type); higher = more accumulation of the downstream cleavage product
# experimental-parameters: experiment (reporter, strain, medium): exp 8a: truncated aprE reporter, strain BJT201 with 2% xylose (RNase J1 expressed); cleavage site: glnRA (positions -5 to +31 mutated)
cleaved RNA product abundance values, listed per item
assay-readout: cleaved RNA product abundance

sequence-entry | subject-of-test | result-number
CGACATGTCCCGCTTCTTTCATTAACCCGTTAGCAACTGTTTTGCTATATACATTTACTTTTTAAGAGGAGGAAT | Bacillus subtilis | 1.04
CGACATGTCCCGCTTCTTTCATTAATCCGTTAGCAATTGTTTTGATATATACATTTACCTTTTAAGAGGAGGAAT | Bacillus subtilis | 0.65
CGACATGTCCCGCTTCTTTCATTATTCCGTTAGCAACTGTTTTGCTATATAGATTTACCTTTTAAGAGGAGGAAT | Bacillus subtilis | 1.02
CGACATGTCCCGCTTCTTTCATTAATCCGTTAGCAACTGTTTTGCTATATATATTTACCCTTTAAGAGGAGGAAT | Bacillus subtilis | 0.959
CGACATGTCCCGCTTCTTTCATTAATCTGTTAGCAACTGTTTTGATATATACATTTACCTTTTAAGAGGAGGAAT | Bacillus subtilis | 0.562
CGACATGTCCCGCTTCTTTCATTAATCCGTTAACAACTGTTTTGTTATATACATTTACCTTTTAAGAGGAGGAAT | Bacillus subtilis | 0.271
CGACATGTCCCGCTTCTTTCATTAATCCGTTAGGAACTGTTTTGCTATATACATTTACCTTTTAAGAGGAGGAAT | Bacillus subtilis | 0.331

----------
# Tested on: Bacillus subtilis
# protocol-summary: cleaved RNA product abundance (RNA/gDNA barcode ratio) relative to median wild-type variant (ratio to wild type); higher = more accumulation of the downstream cleavage product
# experimental-parameters: experiment (reporter, strain, medium): exp 8a: truncated aprE reporter, strain BJT201 with 2% xylose (RNase J1 expressed); cleavage site: glnRA (positions -5 to +31 mutated)
Binary classification by cleaved RNA product abundance, with 0.4 as an inclusive lower bound for TRUE; all other cases are FALSE.

sequence-entry | subject-of-test | label
CGACATGTCCCGCTTCTTTCATTAATCAGTTAGCAACTGTATTGCTATATACATTTACCTTTTAAGAGGAGGAAT | Bacillus subtilis | TRUE
CGACATGTCCCGCTTCTTTCATTAATTCGTTAGCAACTGATTTGCTATATACATTTACCTTTTAAGAGGAGGAAT | Bacillus subtilis | TRUE
CGACATGTCCCGCTTCTTTCATTAATCCGTTATCACCTGTTTTGCTATATACATTTACCTTTTAAGAGGAGGAAT | Bacillus subtilis | FALSE
CGACATGTCCCGCTTCTTTCATTAACCCGTTAGCAACTGTTTTGCTATATATATTTACCTTTTAAGAGGAGGAAT | Bacillus subtilis | TRUE
CGACATGTCCCGCTTCTTTCATTAATCCGTTAGAAACTGTTTTGCTATATACATTAACCTTTTAAGAGGAGGAAT | Bacillus subtilis | FALSE
CGACATGTCCCGCTTCTTTCATTAATCCATTAGCAACTGTTTTGATATATACATTTACCTTTTAAGAGGAGGAAT | Bacillus subtilis | FALSE
CGACATGTCCCGCTTCTTTCATTAATCGGTTAGCAACTGTTTTGCTATATACATTTACCTTTTAAGAGGAGGAAT | Bacillus subtilis | TRUE
